- Subject Of Test: NADPH oxidase 2 (Homo sapiens) (UniProt P04839)
- Sequence (P04839 whole entry, looked up): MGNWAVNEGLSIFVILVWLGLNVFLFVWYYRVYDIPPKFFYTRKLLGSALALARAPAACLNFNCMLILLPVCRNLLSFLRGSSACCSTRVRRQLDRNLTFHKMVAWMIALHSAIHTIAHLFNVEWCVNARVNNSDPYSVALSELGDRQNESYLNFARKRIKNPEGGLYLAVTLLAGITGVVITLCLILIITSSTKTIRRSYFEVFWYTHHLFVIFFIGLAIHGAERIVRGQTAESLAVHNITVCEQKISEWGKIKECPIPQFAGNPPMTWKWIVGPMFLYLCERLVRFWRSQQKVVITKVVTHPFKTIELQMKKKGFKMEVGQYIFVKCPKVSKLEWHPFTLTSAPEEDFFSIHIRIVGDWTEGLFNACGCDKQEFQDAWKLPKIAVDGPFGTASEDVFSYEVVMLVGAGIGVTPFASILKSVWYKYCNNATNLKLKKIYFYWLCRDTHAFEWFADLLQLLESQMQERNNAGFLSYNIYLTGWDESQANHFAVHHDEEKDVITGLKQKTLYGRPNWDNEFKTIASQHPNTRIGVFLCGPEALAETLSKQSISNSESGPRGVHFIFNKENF
- Protocol Summary: NOX2-dependent H2O2 signal modulators, primary screen, NOX inhibitor project, cell-based, HEK293-NOX2, PMA-stimulated, Amplex Red fluorescence (AID 1159); note: test concentration not given here
- Particulars: 45 min, higher = more signal, called active from +8 up or from −8 down
Short version: z-score at least 0.7 is TRUE, less is FALSE.

Past entries and their recorded results:
CCCCN1CC=CC23O[C@@H]4/C=C\CCC(C)OC(=O)C4[C@H]2C(=O)N(CCO)[C@@H]3C1=O (stereo partly drawn): TRUE
Cc1ccc(S[C@]2(C(=O)NC(C)C)CC(=O)N(Cc3ccccc3)[C@@H]2c2ccc(CO)cc2I)cc1: FALSE
CC[C@@H](O[Si](C#C[Si](C(C)C)(C(C)C)C(C)C)(C(C)C)C(C)C)c1cn(Cc2cccc(Cl)c2)nn1: FALSE
O=C1OC[C@@H](c2ccccc2)n2cc(/C=C/c3ccccc3)cc21: FALSE
COc1ccc(NN2C(C(O)c3ccc(F)cc3)C=CC3C(=O)N(C4CCCCC4)C(=O)C32)cc1 (stereo not drawn): FALSE
C=C(CCCC)C(=O)CC[C@@H](OC(C)=O)c1ccc(OCCO)cc1: FALSE

Query: Identify whether the reported z-score of the following compound is 0.7 or greater: COC(=O)Cn1c(C(=O)N(C)C)cc2c1C[C@H]1CN(C(=O)c3ccccc3)[C@@](Cc3ccccc3)(C(=O)OC)[C@@H]21
Result: FALSE

Query: Identify whether the reported z-score of the following compound is 0.7 or greater: COc1ccc(-c2cc3c(c(CCc4ccccc4)n2)[Si](C(C)C)(C(C)C)O[C@H]3c2ccccc2)cn1
Result: TRUE

====

- Protocol Summary: HepG2 liver cancer cell viability effects, profiling panel, resazurin fluorescence, 24 h, PK04 Diversity Set (AID 1172); note: test concentration not given here
- Particulars: higher = more signal
Short version: z-score at least -0.09 is true, less is false.

COCCOC(=O)N1C(=O)[C@@]2(c3cc(C#CCC(C(=O)OC)C(=O)OC)ccc31)[C@H](C(=O)N1CCc3cc(OC)c(OC)cc3C1)[C@H]1C(=O)O[C@H](c3ccccc3)[C@H](c3ccccc3)N1[C@@H]2c1ccccc1OCCO: true

Query: Identify whether the reported z-score of the following compound is -0.09 or greater: CN1C(=O)C2C=CC(C(O)c3ccc(I)cc3)N(N(c3ccccc3)c3ccccc3)C2C1=O (stereo unspecified)
Result: false

Query: Identify whether the reported z-score of the following compound is -0.09 or greater: COC(=O)[C@@]1(Cc2ccc(F)cc2)[C@H]2c3cc(C(=O)N(C)C)n(Cc4cccc5ccccc45)c3C[C@H]2CN1C(=O)c1ccccc1
Result: false

Query: Identify whether the reported z-score of the following compound is -0.09 or greater: COC(=O)[C@@]1(Cc2ccc(F)cc2)[C@H]2c3cc(C(=O)N4CCCC4)n(CCc4c[nH]c5cc(F)ccc45)c3C[C@H]2CN1C(=O)c1ccccc1
Result: true

Query: Identify whether the reported z-score of the following compound is -0.09 or greater: O=C1C[C@@](C(=O)NCC(F)(F)F)(c2ccc([N+](=O)[O-])cc2)[C@@H](c2ccc(CO)cc2I)N1CC12CC3CC(CC(C3)C1)C2
Result: false

Reference source for all entries: PubChem BioAssay
